Test: Saturation solubility of LAC-34 free base in selected solvents (HPLC)
Format: physicochemical
Settings: capric/caprylic triglycerides (CCT), 22 °C, oil or lipid, thermodynamic from solid, in capric/caprylic triglycerides (CCT)
QUANTITY MEASURED: solubility (mg/mL)
Lab book: enter the figure in mg/mL, no units written.

Using the record for c1ccc(N(CCC2CCCCN2)C2Cc3ccccc3C2)cc1 (racemic) , report its solubility.
195

---

Test: Saturation solubility of LAC-34 free base in selected solvents (HPLC)
Format: physicochemical
Details: water, 22 °C, thermodynamic from solid, in water
QUANTITY MEASURED: solubility (µg/mL)
Lab book: enter the figure in µg/mL, no units written.

Using the record for c1ccc(N(CCC2CCCCN2)C2Cc3ccccc3C2)cc1 (racemic) [LAC-34] , report its solubility.
5

---

Experiment: Solubility of LAC-34 in binary mixtures of solvent and water (anti-solvent)
Format: physicochemical
Details: DMSO with 50% water, aqueous with cosolvent or surfactant or cyclodextrin; DMSO, 50% water; read-out: Solubility of LAC-34 in mixture of solvent and water
QUANTITY MEASURED: solubility (µg/mL)
Lab book: enter the figure in µg/mL, no units written.

Using the record for c1ccc(N(CCC2CCCCN2)C2Cc3ccccc3C2)cc1 (racemic) , report its solubility.
1700

---

Experiment: Saturation solubility of LAC-34 free base in selected solvents (HPLC)
Assay type: physicochemical
Settings: propylene glycol (PG), 22 °C, organic solvent or mixture, thermodynamic from solid, in propylene glycol (PG)
Protocol: HPLC analytical methodology was developed, using LAC-34 free base at room temperature (21-23° C.). A liquid's ability to dissolve LAC-34 was screened by adding a known mass of LAC-34 to a known volume/mass of liquid. Saturation solubility was measured by adding an excess of drug substance and allowing the suspension to equilibrate while stirring for 2-3 days. […] All of the solvents, with the exception of water, were able to dissolve large quantities of LAC-34. […]
QUANTITY MEASURED: solubility (mg/mL)
Lab book: enter the figure in mg/mL, no units written.

Using the record for c1ccc(N(CCC2CCCCN2)C2Cc3ccccc3C2)cc1 (racemic) , report its solubility.
149

---

Experiment: Solubility of LAC-34 in binary mixtures of solvent and water (anti-solvent)
Assay type: physicochemical
Details: propylene glycol with 50% water, aqueous with cosolvent or surfactant or cyclodextrin; PG, 50% water; read-out: Solubility of LAC-34 in mixture of solvent and water
Method: Due to the very high solubility of LAC-34 free base in numerous volatile solvents, it was determined to be necessary to find and add an anti-solvent in order to reach saturation of the solutions of LAC-34. The efficacy of water is an anti-solvent for LAC-34 free base was investigated in the present studies.
QUANTITY MEASURED: solubility (µg/mL)
Lab book: enter the figure in µg/mL, no units written.

Using the record for c1ccc(N(CCC2CCCCN2)C2Cc3ccccc3C2)cc1 (racemic) , report its solubility.
370

---

Assay: Saturation solubility of LAC-34 free base in selected solvents (HPLC)
Assay type: physicochemical
Settings: isopropyl myristate (IPM), 22 °C, oil or lipid, thermodynamic from solid, in isopropyl myristate (IPM)
QUANTITY MEASURED: solubility (mg/mL)
Lab book: enter the figure in mg/mL, no units written.

Using the record for c1ccc(N(CCC2CCCCN2)C2Cc3ccccc3C2)cc1 (racemic) , report its solubility.
184

All values here come from patent US20110218218A1.
